target: human Cystic Fibrosis Transmembrane Conductance Regulator (CFTR) harboring the ΔF508 mutation (Homo sapiens, UniProt P13569, DEL508-508); test: H441 cell ΔF508-CFTR-HRP cell surface assay (Emax and EC50)
Sequence (P13569 with tags, fused parts or gaps DEL508-508): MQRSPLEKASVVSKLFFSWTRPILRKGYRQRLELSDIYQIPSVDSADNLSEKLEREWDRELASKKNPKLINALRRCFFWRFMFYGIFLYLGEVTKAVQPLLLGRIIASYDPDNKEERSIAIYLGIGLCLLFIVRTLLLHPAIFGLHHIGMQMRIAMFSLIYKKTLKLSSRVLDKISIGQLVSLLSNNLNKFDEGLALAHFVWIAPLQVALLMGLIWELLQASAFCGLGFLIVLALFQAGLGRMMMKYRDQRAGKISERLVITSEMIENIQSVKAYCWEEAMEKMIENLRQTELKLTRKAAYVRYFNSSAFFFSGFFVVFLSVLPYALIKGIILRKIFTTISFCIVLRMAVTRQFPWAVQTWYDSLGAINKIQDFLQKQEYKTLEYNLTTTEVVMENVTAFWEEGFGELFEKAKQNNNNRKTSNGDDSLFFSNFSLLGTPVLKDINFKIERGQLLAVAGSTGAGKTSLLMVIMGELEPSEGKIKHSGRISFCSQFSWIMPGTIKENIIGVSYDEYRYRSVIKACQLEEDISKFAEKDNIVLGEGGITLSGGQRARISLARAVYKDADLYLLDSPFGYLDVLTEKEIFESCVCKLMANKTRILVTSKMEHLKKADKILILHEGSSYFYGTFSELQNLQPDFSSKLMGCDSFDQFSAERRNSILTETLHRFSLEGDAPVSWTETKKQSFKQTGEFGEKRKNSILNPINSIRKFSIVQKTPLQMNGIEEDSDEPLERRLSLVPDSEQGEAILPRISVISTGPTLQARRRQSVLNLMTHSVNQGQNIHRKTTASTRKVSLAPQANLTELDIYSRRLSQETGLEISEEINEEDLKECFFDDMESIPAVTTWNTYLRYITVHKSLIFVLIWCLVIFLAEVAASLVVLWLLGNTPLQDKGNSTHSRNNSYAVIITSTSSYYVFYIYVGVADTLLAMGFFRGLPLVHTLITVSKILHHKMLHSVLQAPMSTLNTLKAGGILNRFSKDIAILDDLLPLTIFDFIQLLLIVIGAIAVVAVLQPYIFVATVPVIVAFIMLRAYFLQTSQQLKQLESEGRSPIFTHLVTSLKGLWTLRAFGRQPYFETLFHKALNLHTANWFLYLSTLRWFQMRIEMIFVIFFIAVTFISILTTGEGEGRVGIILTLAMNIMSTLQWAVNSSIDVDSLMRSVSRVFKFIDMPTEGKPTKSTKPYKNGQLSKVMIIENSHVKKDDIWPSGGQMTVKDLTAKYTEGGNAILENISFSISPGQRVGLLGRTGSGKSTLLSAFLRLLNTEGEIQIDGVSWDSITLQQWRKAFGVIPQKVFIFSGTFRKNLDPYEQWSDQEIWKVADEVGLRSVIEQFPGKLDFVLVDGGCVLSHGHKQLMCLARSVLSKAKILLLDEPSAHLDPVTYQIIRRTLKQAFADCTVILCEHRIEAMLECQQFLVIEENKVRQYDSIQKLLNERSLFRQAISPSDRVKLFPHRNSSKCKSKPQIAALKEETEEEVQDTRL
pEC50: −log10 of the molar value.
Criterion: pEC50 meeting or surpassing 6. Met: t. Not met: f.

Please tell me: is the molecule Cc1cc(F)c2ccc(C(=O)N[C@H](C(=O)O)C(C)(C)C)c(OCc3ccc(OC(F)(F)F)cc3)c2c1 at or over 6 in terms of pEC50?
t

Please tell me: is the molecule CC(C)(C)[C@H](NC(=O)c1ccc2ccc(F)cc2c1OCc1ccc(C(F)(F)F)cc1)C(=O)O at or over 6 in terms of pEC50?
t

Please tell me: is the molecule CC(C)(SC1CC2CCC1C2)[C@H](NC(=O)c1ccc2ccccc2c1OCC1CCCCC1)C(=O)O (some centres unmarked) at or over 6 in terms of pEC50?
f

Please tell me: is the molecule O=C(N[C@H](C(=O)O)C(c1ccccc1)c1ccccc1)c1ccc2ccccc2c1OCc1ccc(C(F)(F)C(F)(F)F)cc1 at or over 6 in terms of pEC50?
t

Please tell me: is the molecule CCC(C)(C)[C@H](NC(=O)c1ccc2ccc(C(F)(F)F)cc2c1OCc1ccc(OC(F)(F)F)cc1)C(=O)O at or over 6 in terms of pEC50?
t

Please tell me: is the molecule CC1(C(NC(=O)c2ccc3cc(F)ccc3c2OCC2CCC(F)(F)CC2)C(=O)O)CCCCC1 (centres unmarked) at or over 6 in terms of pEC50?
f

Please tell me: is the molecule O=C(NC(C(=O)O)C(C(F)(F)F)C(F)(F)F)c1ccc2cc(F)ccc2c1OCc1ccc(C(F)(F)F)cc1 (centres unmarked) at or over 6 in terms of pEC50?
f

Please tell me: is the molecule O=C(N[C@@H](Cc1ccccc1)C(=O)O)c1ccc2ccccc2c1OCc1ccc(Cl)c(Cl)c1 at or over 6 in terms of pEC50?
f

Please tell me: is the molecule COCC[C@H](NC(=O)c1ccc2ccccc2c1OCc1ccc(C(F)(F)F)cc1)C(=O)O at or over 6 in terms of pEC50?
f

Please tell me: is the molecule CCC(C)(C)[C@H](NC(=O)c1ccc2cc(F)ccc2c1OCc1ccc(SC(F)(F)F)cc1)C(=O)O at or over 6 in terms of pEC50?
t

Please tell me: is the molecule CCC1([C@H](NC(=O)c2ccc3ccc(F)cc3c2OCc2ccc(OC(F)(F)F)cc2)C(=O)O)CCCC1 at or over 6 in terms of pEC50?
t

Please tell me: is the molecule CC1(C(NC(=O)c2ccc3ccccc3c2OCc2ccc(C(F)(F)F)cc2)C(=O)O)CCCCC1 (centres unmarked) at or over 6 in terms of pEC50?
t

Please tell me: is the molecule Cc1cc(F)c2ccc(C(=O)N[C@H](C(=O)O)C(C)(C)C)c(OCc3ccc(C(F)(F)F)cc3)c2c1 at or over 6 in terms of pEC50?
t

Please tell me: is the molecule CC1(C(NC(=O)c2ccc3cc(F)ccc3c2OCc2ccc(S(F)(F)(F)(F)F)cc2)C(=O)O)CCCCC1 (centres unmarked) at or over 6 in terms of pEC50?
t

Please tell me: is the molecule CC(C)(C)C#CCOc1c(C(=O)N[C@H](C(=O)O)C(C)(C)C)ccc2cc(F)ccc12 at or over 6 in terms of pEC50?
f

Please tell me: is the molecule CC(C)(C)[C@H](NC(=O)c1ccc2ccccc2c1OCC1(C(F)(F)F)CC1)C(=O)O at or over 6 in terms of pEC50?
f

Please tell me: is the molecule CCC(C)(C)[C@H](NC(=O)c1ccc2c(F)cccc2c1OCc1ccc(OC(F)(F)F)cc1)C(=O)O at or over 6 in terms of pEC50?
t

Please tell me: is the molecule CC(C)C#CCOc1c(C(=O)N[C@H](C(=O)O)C(C)(C)C)ccc2cc(F)ccc12 at or over 6 in terms of pEC50?
f

Please tell me: is the molecule CC(C)(c1ccccc1)[C@H](NC(=O)c1ccc2ccccc2c1OCc1ccc(S(C)(=O)=O)cc1)C(=O)O at or over 6 in terms of pEC50?
f

Please tell me: is the molecule CC(C)(C)C[C@H](NC(=O)c1ccc2cc(F)ccc2c1OCc1nc2ccccc2s1)C(=O)O at or over 6 in terms of pEC50?
f

Please tell me: is the molecule CCCC(C)(CC)[C@H](NC(=O)c1ccc2ccc(F)cc2c1OCc1ccc(C(F)(F)F)cc1)C(=O)O (some centres unmarked) at or over 6 in terms of pEC50?
t

----------
Please provide measured pEC50 for the entries that follow.
target: human Cystic Fibrosis Transmembrane Conductance Regulator (CFTR) harboring the ΔF508 mutation (Homo sapiens, UniProt P13569, DEL508-508); assay: H441 cell ΔF508-CFTR-HRP cell surface assay (Emax and EC50)
FYI, pEC50 means -log10 of a concentration in mol per litre.

What value of measured pEC50 is listed for CC(C)(C)[C@H](NC(=O)c1cc(Br)c2ccccc2c1OCc1ccc(C(F)(F)F)cc1)C(=O)O ?
6.40

What value of measured pEC50 is listed for CC(C)(C)C[C@H](NC(=O)c1ccc2cc(F)ccc2c1OCc1ccc(SC(F)(F)F)cc1)C(=O)O ?
5.80

What value of measured pEC50 is listed for CC(C)(C)[C@H](NC(=O)c1ccc2c(F)cccc2c1OCc1ccc(C(F)(F)F)cc1)C(=O)O ?
6.00

What value of measured pEC50 is listed for CC(C)(C)[C@H](NC(=O)c1ccc2cc(F)ccc2c1OCC1CCC(F)(F)CC1)C(=O)O ?
5.15

----------
target: human Cystic Fibrosis Transmembrane Conductance Regulator (CFTR) harboring the ΔF508 mutation (Homo sapiens, UniProt P13569, DEL508-508); construct: expressed in transfected cells; host or cells: H441 carcinoma line (G418-selected); test: H441 cell ΔF508-CFTR-HRP cell surface assay (Emax and EC50); assay type: cell-based; details: NCI-H441, NA = Not active
endpoint name: Emax (%)
Just the number please, in %, no unit attached.

What value of measured Emax is listed for O=C(N[C@H](C(=O)O)C12CC(C(F)(F)F)(C1)C2)c1ccc2ccccc2c1OCc1ccc(S(=O)(=O)C(F)(F)F)cc1 [Example 3] ?
18.1

What value of measured Emax is listed for CC(C)(C)[C@H](NC(=O)c1ccc2ccc(F)cc2c1OCc1ccc(C(F)(F)F)cc1)C(=O)O [Example 241] ?
236

What value of measured Emax is listed for CC(C)(C)[C@H](NC(=O)c1ccc2ccccc2c1OCc1ccc(C(F)(F)C(F)(F)F)cc1)C(=O)O [Example 37] ?
195

What value of measured Emax is listed for CC1(C(NC(=O)c2ccc3ccccc3c2OCc2ccc(S(F)(F)(F)(F)F)cc2)C(=O)O)CC1 (stereo not shown) [Example 68] ?
104

What value of measured Emax is listed for CC(C)(C)[C@H](NC(=O)c1ccc2cc(F)ccc2c1OCC1CCCCC1)C(=O)O [Example 45] ?
94.7

What value of measured Emax is listed for C[C@H](OC(C)(C)C)C(NC(=O)c1ccc2ccccc2c1OCc1ccc(C(F)(F)F)cc1)C(=O)O (stereo partly shown) [Example 134] ?
84.9

What value of measured Emax is listed for CC(C)(C)[C@@H](NC(=O)c1ccc2ccc(C(F)F)cc2c1OCc1ccc(C(F)(F)F)cc1)C(=O)O [Example 265] ?
96.2

----------
molecular target: human Cystic Fibrosis Transmembrane Conductance Regulator (CFTR) harboring the ΔF508 mutation (Homo sapiens, UniProt P13569, DEL508-508); construct: expressed in transfected cells; host or cells: H441 carcinoma line (G418-selected); test: H441 cell ΔF508-CFTR-HRP cell surface assay (Emax and EC50); type: cell-based; settings: NCI-H441, NA = Not active
endpoint name: Emax (%)
Just the number please, in %, no unit attached.

What value of measured Emax is listed for O=C(N[C@@H](Cc1ccccc1)C(=O)O)c1ccc2ccccc2c1OCc1ccc(Cl)cc1 [Example 98] ?
6

What value of measured Emax is listed for CC(C)(C)[C@H](NC(=O)c1ccc2ccccc2c1OCc1ccc(SC(F)(F)F)cc1)C(=O)O [Example 35] ?
86.4

What value of measured Emax is listed for CC(C)(C)[C@H](NC(=O)c1ccc2cc(F)ccc2c1OCc1ccc(SC(F)(F)F)cc1)C(=O)O [Example 75] ?
94.2

What value of measured Emax is listed for CC(C)(C)C[C@H](NC(=O)c1ccc2ccccc2c1OCc1ccc(S(C)(=O)=O)cc1)C(=O)O [Example 158] ?
13

What value of measured Emax is listed for CC(C)(C)[C@H](NC(=O)c1ccc2ccccc2c1OCC1CC2CCC1C2)C(=O)O (stereo partly drawn) [Example 41] ?
112

What value of measured Emax is listed for CC1(C(NC(=O)c2ccc3ccccc3c2OCc2ccc(S(=O)(=O)C(F)(F)F)cc2)C(=O)O)CCCCC1 (stereo not drawn) [Example 77] ?
78.9

What value of measured Emax is listed for CCC(C)(C)[C@H](NC(=O)c1ccc2cc(F)ccc2c1OCc1ccc(SC(F)(F)F)cc1)C(=O)O [Example 84] ?
80.5

What value of measured Emax is listed for CC(C)(C)[C@H](NC(=O)c1cc(F)c2ccccc2c1OCc1ccc(C(F)(F)F)cc1)C(=O)O [Example 64] ?
106

What value of measured Emax is listed for CCC(C)(C)[C@H](NC(=O)c1ccc2ccc(Cl)cc2c1OCc1ccc(C(F)(F)F)cc1)C(=O)O [Example 283] ?
313

What value of measured Emax is listed for CC1(C(NC(=O)c2ccc3cc(F)ccc3c2OCc2ccc(S(F)(F)(F)(F)F)cc2)C(=O)O)CCCCC1 (stereo not drawn) [Example 50] ?
57.8

What value of measured Emax is listed for CC(C)(C)C[C@H](NC(=O)c1ccc2ccccc2c1OCc1ccc(S(F)(F)(F)(F)F)cc1)C(=O)O [Example 110] ?
83.1

What value of measured Emax is listed for CC(C)(C)[C@@H](NC(=O)c1ccc2ccc(F)cc2c1OCc1ccc(C(F)(F)F)cc1)C(=O)O [Example 261] ?
68.4

What value of measured Emax is listed for O=C(N[C@@H](Cc1ccco1)C(=O)O)c1ccc2ccccc2c1OCc1ccc(C(F)(F)F)cc1 [Example 136] ?
73.6

What value of measured Emax is listed for CC(C)(C)C[C@H](NC(=O)c1ccc2cc(F)ccc2c1OCc1ccc(S(F)(F)(F)(F)F)cc1)C(=O)O [Example 112] ?
58.1

What value of measured Emax is listed for NC(N)=Nc1ccc(C[C@@H](NC(=O)c2ccc3ccccc3c2OCc2ccc(C(F)(F)F)cc2)C(=O)O)cc1 [Example 105] ?
18.8
